B1: Azoarcus group I ribozyme (parent)
chain: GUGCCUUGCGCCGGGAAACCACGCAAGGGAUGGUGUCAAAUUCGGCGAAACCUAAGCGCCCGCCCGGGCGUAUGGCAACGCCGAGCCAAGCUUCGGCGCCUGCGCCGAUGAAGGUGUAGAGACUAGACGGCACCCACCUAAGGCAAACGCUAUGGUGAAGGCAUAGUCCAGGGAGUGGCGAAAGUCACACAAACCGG

Variants of: B1
Experiment: reverse-splicing fitness (ratio to wild type); higher = more active; in vitro selection; Mg2+ level not given
Cut-off 0.008 on reverse-splicing fitness, inclusive. At or above means y; below means n.

Test whether the variant A111U A120U A145C C150G C169A U176G records reverse-splicing fitness of 0.008 or higher.
n

Test whether the variant C82G A120G A145C C150G C169G U176C records reverse-splicing fitness of 0.008 or higher.
n

Test whether the variant C82U A111U A145G C169U U176A records reverse-splicing fitness of 0.008 or higher.
y

Test whether the variant A111C A145G C150A C169U U176A records reverse-splicing fitness of 0.008 or higher.
y

Test whether the variant C82U A111U A120C C150A C169U U176G records reverse-splicing fitness of 0.008 or higher.
n

Test whether the variant A111U A120C A145C C150U C169G U176A records reverse-splicing fitness of 0.008 or higher.
y
